- Test system: UFH
- procedure-details: FXa amidolytic assay (Example 10), UFH
- cond: read-out: Heparin FXa uM EC50; UFH 0.03 units/mL; human antithrombin, bovine Factor Xa
Quick rule for you: EC50 under 0.2 µM gets TRUE, anything else gets FALSE.

compound-structure-string: COc1ccc(NC(=O)[C@@H](CCCNC(N)=O)NC(=O)c2cc(NC(=O)[C@@H](CCCNC(N)=O)NC(=O)c3cc(NC(=O)[C@@H](CCCNC(=N)N)NC(=O)c4cc(NC(C)=O)ccc4OC)ccc3OC)ccc2OCC(=O)O)cc1C(=O)N[C@H](Cc1c[nH]c2ccccc12)C(N)=O
test-system: UFH
category: FALSE

compound-structure-string: COc1cc(OC)c(C(=O)N[C@H]2CC[C@@H](NC(=O)c3cc(C(=O)N[C@H]4CC[C@@H](N=C(N(C)C)N(C)C)CC4)c(OC)cc3OC)CC2)cc1C(=O)NCCN
test-system: UFH
category: FALSE

compound-structure-string: COc1cc(OC)c(C(=O)NCCNC(=O)c2cc(C(=O)NCCN)c(OC)cc2OC)cc1C(=O)O
test-system: UFH
category: FALSE

Lab log: compare recorded EC50 with 0.2 µM; is it strictly lower for `COc1ccc(NC(=O)[C@@H](CCCNC(N)=O)NC(=O)c2cc(NC(=O)[C@@H](CCCNC(=N)N)NC(=O)c3cc(NC(=O)[C@@H](CCCNC(=N)N)NC(=O)c4cc(NC(C)=O)ccc4OC)ccc3OC)ccc2OCC(=O)O)cc1C(=O)N[C@H](Cc1c[nH]c2ccccc12)C(N)=O` ?
FALSE

Lab log: compare recorded EC50 with 0.2 µM; is it strictly lower for `COc1ccc(NC(=O)[C@H](CCCCN)NC(=O)c2cc(NC(=O)[C@H](CCCCN)NC(=O)c3cc(NC(=O)[C@H](CCCCN)NC(=O)c4cc(NC(=O)[C@@H](N)Cc5c[nH]c6ccccc56)ccc4OC)ccc3OC)ccc2OC)cc1C(N)=O` ?
TRUE

* * *

For each of the compounds below, state its EC50.
- Test system: isolated human erythrocytes
- procedure-details: cells
- Format: cell-based
- cond: Homo sapiens, Erythrocyte, 1 h, human RBC, 1 hour at 37° C.; read-out: Hemolysis EC50
Starred links: 1 amine or outer side, 2 acyl side, 3 side chain; linkers in the order of their positions; H or OH if unused. Non-standard residues stand in square brackets, D forms with d. Residues, ends and D or L forms follow the SMILES beside them. *: point of attachment. NH(3-CONH2-4-OMe-phenyl) = COc1ccc(N*)cc1C(N)=O; 3Abz(6-OMe) = COc1ccc(N[*:1])cc1C(=O)[*:2]

compound: COc1ccc(NC(=O)[C@@H](CCCNC(=N)N)NC(=O)c2cc(NC(=O)[C@@H](CCCNC(=N)N)NC(=O)c3cc(NC(=O)[C@@H](CCCNC(=N)N)NC(=O)c4cc(NC(C)=O)ccc4OC)ccc3OC)ccc2OC)cc1C(=O)N[C@H](Cc1ccc(O)cc1)C(=O)O [Compound 297]
EC50: > 1000 µg/mL

compound: COc1cc(OC)c(C(=O)N[C@H]2CC[C@H](NC(=O)c3cc(C(=O)N[C@H]4CC[C@H](NC(=O)c5cc(C(=O)NCCCN)c(OC)cc5OC)CC4)c(OC)cc3OC)CC2)cc1C(=O)NCCCN [Compound 406]
EC50: 12.1 µg/mL

compound: COc1ccc(NC(=O)[C@H](CCCCN)NC(=O)c2cc(NC(=O)[C@H](CCCCN)NC(=O)c3cc(NC(=O)[C@H](CCCCN)NC(=O)c4cc(NC(=O)[C@@H](N)Cc5c[nH]c6ccccc56)ccc4OC)ccc3OC)ccc2OCC(=O)O)cc1C(=O)N[C@@H](Cc1c[nH]c2ccccc12)C(N)=O [Compound 334]
EC50: ~15 µg/mL

# query: EC50 of entry COc1ccc(NC(=O)[C@H](CCCCN)NC(=O)c2cc(NC(=O)[C@H](CCCCN)NC(=O)c3cc(NC(=O)[C@H](CCCCN)NC(=O)c4cc(NC(=O)[C@H](CCCCN)NC(=O)[C@@H](N)Cc5c[nH]c6ccccc56)ccc4OC)ccc3OC)ccc2OC)cc1C(N)=O [Compound 351] (H-WK[3Abz(6-OMe)]K[3Abz(6-OMe)]K[3Abz(6-OMe)]K-{NH(3-CONH2-4-OMe-phenyl)})
> 1000 µg/mL

* * *

- System: isolated human erythrocytes
- procedure-details: cells
- Assay type: cell-based
- cond: Homo sapiens, Erythrocyte, 1 h, human RBC, 1 hour at 37° C.; read-out: Hemolysis EC50
Starred links: 1 amine or outer side, 2 acyl side, 3 side chain; linkers in the order of their positions; H or OH if unused. Non-standard residues stand in square brackets, D forms with d. Residues, ends and D or L forms follow the SMILES beside them. *: point of attachment. NH(3-CONH2-4-OMe-phenyl) = COc1ccc(N*)cc1C(N)=O; 3Abz(6-OMe) = COc1ccc(N[*:1])cc1C(=O)[*:2]; X1 = O=C(O)COc1ccc(N[*:1])cc1C(=O)[*:2]
reported-endpoint: EC50

Example entries begin here.
compound: COc1ccc(NC(=O)[C@@H](CCCNC(=N)N)NC(=O)c2cc(NC(=O)[C@@H](CCCNC(=N)N)NC(=O)c3cc(NC(=O)[C@@H](CCCNC(=N)N)NC(=O)c4cc(NC(C)=O)ccc4OC)ccc3OC)ccc2OCC(=O)O)cc1C(=O)N[C@H](Cc1c[nH]c2ccccc12)C(=O)O [Compound 306]
EC50: ~1000 µg/mL

compound: COc1ccc(NC(=O)[C@@H](CCCNC(=N)N)NC(=O)c2cc(NC(=O)[C@@H](CCCNC(=N)N)NC(=O)c3cc(NC(=O)[C@@H](CCCNC(=N)N)NC(=O)c4cc(NC(=O)[C@H](N)CCCNC(=N)N)ccc4OC)ccc3OC)ccc2OCC(=O)O)cc1C(N)=O [Compound 281]
EC50: > 1000 µg/mL

compound: COc1ccc(NC(=O)[C@H](CCCNC(=N)N)NC(=O)c2cc(NC(=O)[C@H](CCCNC(=N)N)NC(=O)c3cc(NC(=O)[C@H](CCCNC(=N)N)NC(=O)c4cc(NC(=O)[C@@H](N)CCCNC(=N)N)ccc4OC)ccc3OC)ccc2OC)cc1C(=O)NCC(=O)O [Compound 284]
EC50: 1000 µg/mL

compound: COc1cc(OC)c(C(=O)N[C@H]2CC[C@H](NC(=O)c3ccc(OCCCCCN)cc3OCCCCCN)CC2)cc1C(=O)N[C@H]1CC[C@H](NC(=O)c2ccc(OCCCCCN)cc2OCCCCCN)CC1 [Compound 335]
EC50: > 1000 µg/mL

compound: COc1ccc(NC(=O)[C@H](CCCNC(=N)N)NC(=O)c2cc(NC(=O)[C@H](CCCNC(=N)N)NC(=O)c3cc(NC(=O)[C@H](CCCNC(=N)N)NC(=O)c4cc(NC(C)=O)ccc4OC)ccc3OC)ccc2OC)cc1C(=O)N[C@@H](Cc1c[nH]c2ccccc12)C(=O)O [Compound 310]
EC50: ~1000 µg/mL

compound: COc1ccc(NC(=O)[C@H](CCCCN)NC(=O)c2cc(NC(=O)[C@H](CCCCN)NC(=O)c3cc(NC(=O)[C@H](CCC(=O)O)NC(=O)c4cc(NC(=O)[C@@H](N)CCCCN)ccc4OC)ccc3OC)ccc2OC)cc1C(N)=O [Compound 317]
EC50: > 1000 µg/mL

compound: COc1ccc(NC(=O)[C@H](CCCCN)NC(=O)c2cc(NC(=O)[C@H](CCCCN)NC(=O)c3cc(NC(=O)[C@H](CCCCN)NC(=O)c4cc(NC(=O)[C@H](CCCCN)NC(=O)[C@@H](N)Cc5c[nH]c6ccccc56)ccc4OC)ccc3OC)ccc2OCC(=O)O)cc1C(N)=O [Compound 352] (H-WK[3Abz(6-OMe)]K[3Abz(6-OMe)]K[X1]K-{NH(3-CONH2-4-OMe-phenyl)})
EC50: > 1000 µg/mL

As a next step, examine the compound that follows.
# query: EC50 of entry COc1cc(OC)c(C(=O)N[C@H]2CC[C@@H](NC(=O)c3ccc(OCCCCCN)cc3OCCCCCN)CC2)cc1C(=O)N[C@H]1CC[C@@H](NC(=O)c2ccc(OCCCCCN)cc2OCCCCCN)CC1 [Compound 369]
> 1000 µg/mL

* * *

- Tested on: unfractionated heparin (UFH)
- procedure-details: aPTT clotting assay, UFH 0.2 U/mL in plasma (Example 7)
- Assay type: biochemical
- cond: UFH 0.2 U/mL in plasma
For each of the compounds below, state its UFH (aPTT) EC50.
Answers are plain numbers, in µg/mL.

compound: COc1ccc(NC(=O)[C@@H](CCCNC(=N)N)NC(=O)c2cc(NC(=O)[C@@H](CCCNC(=N)N)NC(=O)c3cc(NC(=O)[C@@H](CCCNC(=N)N)NC(=O)c4cc(NC(C)=O)ccc4OC)ccc3OC)ccc2OC)cc1C(=O)NCCN
test-system: unfractionated heparin (UFH)
unit-abbrev: µg/mL
UFH (aPTT) EC50: 2.13

compound: COc1ccc(NC(=O)[C@H](CCCNC(=N)N)NC(=O)c2cc(NC(=O)[C@H](CCCNC(=N)N)NC(=O)c3cc(NC(=O)[C@H](CCCNC(=N)N)NC(=O)c4cc(NC(=O)[C@@H](N)CCCNC(=N)N)ccc4OC)ccc3OC)ccc2OC)cc1C(N)=O [Compound 7]
test-system: unfractionated heparin (UFH)
unit-abbrev: µg/mL
UFH (aPTT) EC50: 1.84

compound: COc1ccc(NC(=O)[C@@H](CCCNC(=N)N)NC(=O)c2cc(NC(=O)[C@@H](CCCNC(=N)N)NC(=O)c3cc(NC(=O)[C@@H](CCCNC(=N)N)NC(=O)c4cc(NC(=O)[C@@H](C)N)ccc4OC)ccc3OC)ccc2OC)cc1C(N)=O
test-system: unfractionated heparin (UFH)
unit-abbrev: µg/mL
UFH (aPTT) EC50: 2.41

What UFH (aPTT) EC50 appears in the records for this compound with unfractionated heparin (UFH)? `COc1ccc(NC(=O)[C@H](CCCCN)NC(=O)c2cc(NC(=O)[C@H](CCCCN)NC(=O)c3cc(NC(=O)[C@H](CCCCN)NC(=O)c4c[nH]c5ccccc45)ccc3OC)ccc2OC)cc1C(N)=O`
7.13
